Values from patent US12642270B2

- ASSAY SUMMARY: Log P by HPLC on reversed phase columns (EEC directive 79/831 Annex V.A8)
- Format: physicochemical
- CONDITION LABEL: method marked [a]
- Method: In the above tables, measurement of Log P values was performed according to EEC directive 79/831 Annex V.A8 by HPLC (High Performance Liquid Chromatography) on reversed phase columns with the following methods: • ^[a] […] Lambda-max-values were determined using UV-spectra from 200 nm to 400 nm and the peak values of the chromatographic signals.
METRIC: LogP

Entry CCOC(=O)C(NC(=O)c1sc(Br)c(Cl)c1C)C(=O)OCC ; LogP = 3.84^[a]

Entry COC(=O)C(C)(C)NC(=O)c1cc(Br)c(C(F)(F)F)s1 ; LogP = 3.23^[a]

Entry COC(=O)CNC(=O)c1sc(C#N)c(Cl)c1C ; LogP = 2.03^[a]

Entry N#CCNC(=O)c1sc(Cl)c(Cl)c1C#N ; LogP = 2.04^[a]

Entry CCOC(=O)C1(NC(=O)c2sc(Br)c(Br)c2C(F)F)CCC1 ; LogP = 3.67^[a]

Entry CCOC(=O)C(Cc1ccccc1)NC(=O)c1sc(Cl)c(Cl)c1F (centres unmarked) ; LogP = 4.47^[a]

Entry COC(=O)C(NC(=O)c1sc(Cl)c(Cl)c1C#N)C1CC1 (centres unmarked) ; LogP = 2.89^[a]

Entry CCOC(=O)C(Cc1ccccc1)NC(=O)c1sc(F)c(Cl)c1C (centres unmarked) ; LogP = 4.15^[a]

Entry CCOC(=O)C(NC(=O)c1sc(Br)c(Br)c1F)C(=O)OCC ; LogP = 3.91^[a]

Entry N#CCNC(=O)c1sc(F)c(Br)c1Br ; LogP = 2.39^[a]

Entry CCOC(=O)C1(NC(=O)c2sc(Br)c(Cl)c2Br)CC1 ; LogP = 3.56^[a]

Entry COC(=O)C1(NC(=O)c2sc(Br)c(Br)c2C(F)(F)F)CC1 ; LogP = 2.93^[a]

Entry COC(=O)C(CC(F)F)NC(=O)c1sc(Cl)c(Cl)c1F (centres unmarked) ; LogP = 3.19^[a]

Entry CCOC(=O)C(CCSC)NC(=O)c1sc(F)c(Br)c1C (centres unmarked) ; LogP = 3.67^[a]

Entry CCOC(=O)C(C#N)NC(=O)c1sc(Br)c(Br)c1Cl (centres unmarked) ; LogP = 3.34^[a]

Entry CCOC(=O)CNC(=O)c1sc(F)c(Br)c1Br ; LogP = 3.01^[a]

Entry COC(=O)C1(NC(=S)c2sc(C#N)c(Br)c2C)CC1 ; LogP = 3.10^[a]

Entry CCOC(=O)C(CSC)NC(=O)c1sc(Cl)c(Br)c1C (centres unmarked) ; LogP = 3.97^[a]

Entry NC(=O)C1(NC(=O)c2sc(Cl)c(Cl)c2Br)CC1 ; LogP = 2.08^[a]

Entry COC(=O)CNC(=O)c1sc(Br)c(Br)c1C(F)F ; LogP = 2.66^[a]

Entry CCOC(=O)C(NC(=O)c1sc(C#N)c(Cl)c1C)C(=O)OCC ; LogP = 3.20^[a]

Entry CCOC(=O)C1(NC(=O)c2sc(Cl)c(Cl)c2Br)CSC1 ; LogP = 3.95^[a]

Entry COC(=O)CNC(=O)c1sc(F)c(Br)c1C ; LogP = 2.31^[a]

Entry CCOC(=O)C(CSC)NC(=O)c1sc(Cl)c(Cl)c1C#N (centres unmarked) ; LogP = 3.37^[a]

Entry CCOC(=O)C(C)NC(=O)c1sc(Br)c(Br)c1C(F)(F)F (centres unmarked) ; LogP = 3.35^[a]

Entry CCOC(=O)C1(NC(=O)c2sc(Br)c(Br)c2C(F)(F)F)CC1 ; LogP = 3.26^[a]

Entry CCOC(=O)C(CCSC)NC(=O)c1cc(C#N)c(Cl)s1 (centres unmarked) ; LogP = 3.01^[a]

Entry COC(=O)C(NC(=O)c1sc(Cl)c(Cl)c1F)C1CC1 (centres unmarked) ; LogP = 3.36^[a]

Entry CCOC(=O)C(NC(=O)c1sc(F)c(Cl)c1C)C(C)C (centres unmarked) ; LogP = 3.87^[a]

Entry O=C(CNC(=O)c1sc(Br)c(Br)c1F)OC1CCOC1 (centres unmarked) ; LogP = 2.53^[a]

Entry CCOC(=O)C1(NC(=S)c2sc(Cl)c(Br)c2Cl)CC1 ; LogP = 4.55^[a]

Entry COC(=O)C(NC(=O)c1sc(Br)c(Cl)c1C)(C1CC1)C1CC1 ; LogP = 3.94^[a]

Entry CCOC(=O)C(NC(=O)c1sc(F)c(Br)c1C)C(C)C (centres unmarked) ; LogP = 3.94^[a]

Entry COC(=O)CNC(=O)c1cc(Cl)c(C#N)s1 ; LogP = 1.77^[a]

Entry CCOC(=O)C1(NC(=O)c2sc(Cl)c(Cl)c2C#N)CCC1 ; LogP = 3.16^[a]
